# testTarget: Thyrotropin receptor (Homo sapiens) (UniProt P16473)
# Sequence (P16473 whole entry, looked up): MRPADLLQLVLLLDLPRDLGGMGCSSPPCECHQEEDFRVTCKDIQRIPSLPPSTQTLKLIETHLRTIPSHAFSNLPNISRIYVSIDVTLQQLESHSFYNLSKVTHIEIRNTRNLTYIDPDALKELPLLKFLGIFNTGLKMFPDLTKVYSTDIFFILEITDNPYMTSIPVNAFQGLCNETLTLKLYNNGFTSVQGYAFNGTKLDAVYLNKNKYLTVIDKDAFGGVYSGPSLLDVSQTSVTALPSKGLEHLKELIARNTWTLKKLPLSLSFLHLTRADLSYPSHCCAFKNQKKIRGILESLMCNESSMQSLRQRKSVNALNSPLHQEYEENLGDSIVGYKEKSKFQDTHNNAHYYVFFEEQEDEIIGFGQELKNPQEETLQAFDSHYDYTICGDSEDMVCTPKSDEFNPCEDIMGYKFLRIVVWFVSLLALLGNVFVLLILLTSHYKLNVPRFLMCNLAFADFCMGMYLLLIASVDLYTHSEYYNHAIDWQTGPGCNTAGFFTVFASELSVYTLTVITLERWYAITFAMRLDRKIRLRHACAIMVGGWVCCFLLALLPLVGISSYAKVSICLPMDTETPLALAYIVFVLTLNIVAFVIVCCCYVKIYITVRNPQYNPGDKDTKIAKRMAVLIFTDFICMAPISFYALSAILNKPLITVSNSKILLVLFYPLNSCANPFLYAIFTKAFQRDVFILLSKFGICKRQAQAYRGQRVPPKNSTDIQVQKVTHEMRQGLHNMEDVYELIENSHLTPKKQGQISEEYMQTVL
# protocolDescription: qHTS assay to identify small molecule antagonists of the thyroid stimulating hormone receptor (TSHR) signaling pathway (AID 1259385); note: nearly all actives have a fitted effect of over 20% in size
# condition: TSHR-HEK293 cAMP HTRF, TSH-stimulated antagonist mode; series mostly up to 92.4 µM
Records with an inconclusive call do not appear. Active and inactive are the calls of the source. Calls come from the whole dose curve.
Labels: Y (active), N (inactive)

compound=N#CCCNCCC#N labelclass=N
compound=CN1CSC(=S)N(C)C1 labelclass=N
compound=CC(c1ccccc1)(c1ccc(O)cc1)c1ccc(O)cc1 labelclass=N
compound=O=C1C(I)=CC(=C(c2cc(I)c(O)c(I)c2)c2ccccc2C(=O)O)C=C1I labelclass=N
compound=CO/C=C(/C(=O)OC)c1ccccc1Oc1cc(Oc2ccccc2C#N)ncn1 labelclass=Y
compound=Cc1ccc(N(SC(F)(Cl)Cl)S(=O)(=O)N(C)C)cc1 labelclass=Y
compound=Oc1c(I)cc(I)cc1I labelclass=N
compound="CC(C)(C)OCC1CO1 (stereo unspecified)" labelclass=N
compound=CCN(CC)C(=O)Cl labelclass=N
compound=CNC(=O)Oc1cc(C)c(SC)c(C)c1 labelclass=N
compound="Cc1nnc2n1-c1sc(CCc3ccc(CC(C)C)cc3)cc1C(c1ccccc1Cl)=NC2C (stereo unspecified)" labelclass=N
